Measured values drawn from patent US20260193264A1 for this set.

Listed here: items and their measured DC50.
# System name: HiBiT-BRM fusion protein in stable HeLa cell line (Homo sapiens)
# Construct: expressed in transfected cells
# Sequence (P51531 whole entry, the tested form may be a part): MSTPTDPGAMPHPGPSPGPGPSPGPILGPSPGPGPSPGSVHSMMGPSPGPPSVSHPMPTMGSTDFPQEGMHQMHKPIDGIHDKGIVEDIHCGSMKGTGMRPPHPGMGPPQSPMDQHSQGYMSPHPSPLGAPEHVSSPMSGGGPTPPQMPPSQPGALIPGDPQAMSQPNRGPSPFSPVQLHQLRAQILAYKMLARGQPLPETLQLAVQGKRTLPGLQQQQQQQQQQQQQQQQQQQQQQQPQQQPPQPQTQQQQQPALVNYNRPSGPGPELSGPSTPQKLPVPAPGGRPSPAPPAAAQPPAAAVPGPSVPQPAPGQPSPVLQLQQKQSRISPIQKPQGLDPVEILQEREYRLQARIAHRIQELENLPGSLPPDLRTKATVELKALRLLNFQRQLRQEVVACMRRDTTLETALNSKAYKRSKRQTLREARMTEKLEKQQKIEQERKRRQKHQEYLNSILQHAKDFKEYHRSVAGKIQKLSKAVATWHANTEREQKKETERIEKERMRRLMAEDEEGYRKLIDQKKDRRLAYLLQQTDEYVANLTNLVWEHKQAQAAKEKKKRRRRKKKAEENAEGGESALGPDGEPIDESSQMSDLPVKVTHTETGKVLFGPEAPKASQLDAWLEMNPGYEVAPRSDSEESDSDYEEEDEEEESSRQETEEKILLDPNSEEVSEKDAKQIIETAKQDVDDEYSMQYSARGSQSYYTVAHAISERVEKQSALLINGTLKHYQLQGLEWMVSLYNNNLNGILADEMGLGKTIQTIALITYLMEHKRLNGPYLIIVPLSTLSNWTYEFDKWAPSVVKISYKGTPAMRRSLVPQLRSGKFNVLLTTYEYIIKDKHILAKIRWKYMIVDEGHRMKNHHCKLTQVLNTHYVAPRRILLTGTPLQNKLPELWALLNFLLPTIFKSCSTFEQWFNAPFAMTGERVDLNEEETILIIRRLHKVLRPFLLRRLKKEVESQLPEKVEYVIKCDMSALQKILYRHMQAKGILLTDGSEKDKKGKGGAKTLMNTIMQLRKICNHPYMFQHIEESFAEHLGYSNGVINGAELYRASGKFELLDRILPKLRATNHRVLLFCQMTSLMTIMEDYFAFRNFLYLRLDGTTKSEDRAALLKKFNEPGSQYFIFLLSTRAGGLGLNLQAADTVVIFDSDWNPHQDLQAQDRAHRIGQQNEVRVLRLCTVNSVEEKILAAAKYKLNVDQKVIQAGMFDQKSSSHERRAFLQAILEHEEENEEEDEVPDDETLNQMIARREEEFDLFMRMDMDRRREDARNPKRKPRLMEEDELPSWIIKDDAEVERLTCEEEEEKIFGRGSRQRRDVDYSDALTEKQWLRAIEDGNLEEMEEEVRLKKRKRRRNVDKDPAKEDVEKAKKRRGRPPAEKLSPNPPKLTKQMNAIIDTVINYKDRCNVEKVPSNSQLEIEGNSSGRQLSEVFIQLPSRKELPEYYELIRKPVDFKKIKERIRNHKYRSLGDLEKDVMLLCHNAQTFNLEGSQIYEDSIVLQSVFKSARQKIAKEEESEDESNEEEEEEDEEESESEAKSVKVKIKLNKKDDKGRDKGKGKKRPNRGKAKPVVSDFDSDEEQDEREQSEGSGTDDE
# Assay details: HiBiT-BRM cell-based degradation assay (Nano-Glo HiBiT Lytic Detection, 24 h)
# Parameters: scale not given here
# Condition: HeLa HiBiT-BRM cells, read-out: BRM HiBit Degradation IC50

- Cc1ncsc1-c1ccc([C@H](C)NC(=O)[C@@H]2C[C@@H](O)CN2C(=O)[C@H](C(C)C)n2cnc(N3CC4(CN(c5ccc6nnc(-c7ccccc7O)cc6c5)C4)C3)c2)cc1 [Compound 272]: > 0.1 µM
- Cc1ncsc1-c1ccc([C@H](C)NC(=O)[C@@H]2C[C@@H](O)CN2C(=O)[C@H](C2CCC2)n2cc(N3CC4(CC(c5ccc6cc(-c7ccccc7O)nnc6c5)C4)C3)nn2)cc1 [Compound 193]: < 0.01 µM
- CC(C)[C@@H](C(=O)N1C[C@H](O)C[C@H]1C(=O)N[C@@H](C)c1ccccc1)c1cc(N2CC[C@H](c3ccc4cc(-c5ccccc5O)nnc4c3)C2)no1 [Compound 118]: > 0.01 µM
- Cc1cc(-c2cc([C@H](C(=O)N3C[C@H](O)C[C@H]3C(=O)N[C@@H](C)c3ccc(-c4scnc4C)cc3)C(C)C)on2)cnc1N1CCC(c2ccc3nnc(-c4ccccc4O)cc3c2)CC1 [Compound 64]: < 0.01 µM
- Cc1ncsc1-c1ccc([C@H](C)NC(=O)[C@@H]2C[C@@H](O)CN2C(=O)[C@@H](c2cc(N3CC4(CN(c5ccc6cc(-c7ccccc7O)nnc6c5)C4)C3)n(C)n2)C(C)C)cc1 (single isomer, unassigned) [Compound 194]: > 0.1 µM
- Cc1ncsc1-c1ccc([C@H](C)NC(=O)[C@@H]2C[C@@H](O)CN2C(=O)[C@@H](c2cc(N3CC4(CN(c5ccc6cc(-c7ccccc7O)nnc6c5)CCO4)C3)no2)C(C)C)cc1 [Compound 127]: < 0.01 µM
- COC[C@H]1CN(c2cc([C@H](C(=O)N3C[C@H](O)C[C@H]3C(=O)N[C@@H](C)c3ccc(-c4scnc4C)cc3)C(C)C)on2)CCN1c1ccc2cc(-c3ccccc3O)nnc2c1 [Compound 142]: > 0.01 µM
- Cc1ncsc1-c1ccc([C@H](C)NC(=O)[C@@H]2C[C@@H](O)CN2C(=O)[C@@H](c2cc(N3CCC(Oc4ccc5nnc(-c6ccccc6O)cc5c4)CC3)no2)C(C)C)cc1 [Compound 182]: < 0.01 µM
- Cc1ncsc1-c1ccc([C@H](C)NC(=O)[C@@H]2C[C@@H](O)CN2C(=O)[C@@H](c2cc(N3CC4(CN(c5cc(C6CC6)c6cc(-c7ccccc7O)nnc6c5)C4)C3)no2)C(C)C)cc1 [Compound 125]: < 0.01 µM
- Cc1ncsc1-c1ccc([C@H](C)NC(=O)[C@@H]2C[C@@H](O)CN2C(=O)[C@@H](c2cc(N3CCC(N4CC5(CN(Cc6ccc7cc(-c8ccccc8O)nnc7c6)C5)C4)CC3)no2)C(C)C)cc1 [Compound 244]: > 0.1 µM

The reported value for Cc1ncsc1-c1ccc([C@H](C)NC(=O)[C@@H]2C[C@@H](O)CN2C(=O)[C@H](C(C)C)n2cc(N3CCN4CCN(c5ccc6nnc(-c7ccccc7O)cc6c5)CC4C3)nn2)cc1 (stereo partly shown) [Compound 214] in terms of DC50 is < 0.01 µM

DC50 reported for this compound Cc1ncsc1-c1ccc([C@H](C)NC(=O)[C@@H]2C[C@@H](O)CN2C(=O)[C@@H](c2cc(N3CC4(C3)CN(c3cc5cc(-c6ccccc6O)nnc5cc3C3CC3)C4)no2)C(C)C)cc1 [Compound 152] : < 0.01 µM

The compound listed as Cc1ncsc1-c1ccc([C@H](C)NC(=O)[C@@H]2C[C@@H](O)CN2C(=O)[C@@H](c2cc(-c3ccnc(N4CCC(c5ccc6cc(-c7ccccc7O)nnc6c5)CC4)n3)no2)C(C)C)cc1 [Compound 52] shows DC50 equal to < 0.01 µM

The compound listed as Cc1ncsc1-c1ccc([C@H](C)NC(=O)[C@@H]2C[C@@H](O)CN2C(=O)C(C(C)C)n2cc(N3CCC4C(C3)CN4c3ccc4cc(-c5ccccc5O)nnc4c3)nn2)cc1 (stereo partly shown) [Compound 263] has a reported DC50 of > 0.01 µM

Short answer for CC(C)[C@@H](C(=O)N1C[C@H](O)C[C@H]1C(=O)N[C@@H](C)c1ccc(C#N)cc1)n1cc(N2CC3(CN(c4ccc5cc(-c6ccccc6O)nnc5c4)C3)C2)nn1 [Compound 202] : DC50 was < 0.01 µM

Input Cc1ncsc1-c1ccc([C@H](C)NC(=O)[C@@H]2C[C@@H](O)CN2C(=O)[C@@H](c2cc(N3CCN([C@H]4CCN(c5ccc6nnc(-c7ccccc7O)cc6c5)CC4(F)F)CC3)no2)C(C)C)cc1 [Compound 123] . Output DC50: < 0.01 µM

Please fill in: DC50 reported for Cc1ncsc1-c1ccc([C@H](C)NC(=O)[C@@H]2C[C@@H](O)CN2C(=O)[C@@H](c2cc(N3CC4(CC(Oc5ccc6nnc(-c7ccccc7O)cc6c5)C4)C3)no2)C(C)C)cc1 [Compound 184] = < 0.01 µM

Field DC50 (entry Cc1nc(N2CCC(c3ccc4nnc(-c5ccccc5O)cc4c3)CC2)ccc1-c1cc([C@H](C(=O)N2C[C@H](O)C[C@H]2C(=O)N[C@@H](C)c2ccc(-c3scnc3C)cc2)C(C)C)on1 [Compound 69] ) reads < 0.01 µM

Kindly note the recorded DC50 for Cc1ncsc1-c1ccc([C@H](C)NC(=O)[C@@H]2C[C@@H](O)CN2C(=O)[C@@H](c2cc(OCCN3CC(c4ccc5nnc(-c6ccccc6O)cc5c4)C3)no2)C(C)C)cc1 [Compound 1] , which is > 0.01 µM
